Recorded Microsomal Stability (rat) T1/2 values for a group of compounds are listed next.
test: Microsomal stability (rat); assay type: in vitro ADME; conditions: rat microsomes
Result Type: Microsomal Stability (rat) T1/2

{"Molecular String": "O=C(c1ccc(-n2c(=O)ccc3cnc4ccc(-c5ccc(OC6CCNCC6)cc5)cc4c32)cc1)N1CCOCC1", "Assay Result": ">30 min"}
{"Molecular String": "N#Cc1cccc(-n2c(=O)ccc3cnc4ccc(-c5ccc(N)nc5)cc4c32)c1", "Assay Result": ">30.0 min"}
{"Molecular String": "COc1cc(C(=O)NC2CCN(CCO)CC2)ccc1-n1c(=O)ccc2cnc3ccc(-c4ccc(Cl)cc4)cc3c21", "Assay Result": ">30 min"}
{"Molecular String": "CS(=O)(=O)c1ccc(-n2c(=O)ccc3cnc4ccc(-c5ccc(CN)cc5)cc4c32)cc1", "Assay Result": ">30.0 min"}
{"Molecular String": "CN(C)Cc1ccc(-c2ccc3ncc4ccc(=O)n(-c5cccc(C#N)c5)c4c3c2)cc1", "Assay Result": ">30.0 min"}
{"Molecular String": "CN(C)Cc1ccc(-c2ccc3ncc4ccc(=O)n(-c5ccc(C(=O)N(CCO)CCO)cc5)c4c3c2)cc1", "Assay Result": ">30.0 min"}
{"Molecular String": "O=C(NC1CC1)c1ccc(-n2c(=O)ccc3cnc4ccc(-c5ccc(F)cc5)cc4c32)cc1", "Assay Result": ">30 min"}
